meta.source: the supplement of paper PMC9112550

For each entry below, report its shrunken log2 fold change value.
Tested on: Escherichia coli TOP10;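 note: peptides expressed intracellularly from a pBAD plasmid library in pooled LB shake-flask culture, induced with 0.3% L-arabinose, DNA abundance read by NGS, three biological replicates, DESeq2 with apeglm shrinkage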
Test: shrunken log2 fold change of peptide-encoding DNA abundance (4.5 h post-induction vs induction); higher = less antimicrobial activity (less host growth inhibition)
Details: time post-induction: 4.5 h; library: site-saturation at positions 5, 18, 19, 20
Kindly provide the number alone.

Q. Give measured shrunken log2 fold change for RRIRERPPRLPRPRPRPTRKPRP (Escherichia coli TOP10).
A. 0.0197

Q. Give measured shrunken log2 fold change for RRIRWRPPRLPRPRPRPRVDPRP (Escherichia coli TOP10).
A. 0.39

Q. Give measured shrunken log2 fold change for RRIRLRPPRLPRPRPRPQIYPRP (Escherichia coli TOP10).
A. -0.17

Q. Give measured shrunken log2 fold change for RRIRSRPPRLPRPRPRPIRMPRP (Escherichia coli TOP10).
A. -0.109

Q. Give measured shrunken log2 fold change for RRIRGRPPRLPRPRPRPMCIPRP (Escherichia coli TOP10).
A. 0.166

Q. Give measured shrunken log2 fold change for RRIRFRPPRLPRPRPRPQATPRP (Escherichia coli TOP10).
A. -0.248

Q. Give measured shrunken log2 fold change for RRIRCRPPRLPRPRPRPFTEPRP (Escherichia coli TOP10).
A. -0.28

Q. Give measured shrunken log2 fold change for RRIRFRPPRLPRPRPRPVSQPRP (Escherichia coli TOP10).
A. 0.0413

Q. Give measured shrunken log2 fold change for RRIRIRPPRLPRPRPRPWSYPRP (Escherichia coli TOP10).
A. -0.427

Q. Give measured shrunken log2 fold change for RRIRFRPPRLPRPRPRPIASPRP (Escherichia coli TOP10).
A. -0.015

Q. Give measured shrunken log2 fold change for RRIRERPPRLPRPRPRPPAPPRP (Escherichia coli TOP10).
A. 0.569

Q. Give measured shrunken log2 fold change for RRIRQRPPRLPRPRPRPWHNPRP (Escherichia coli TOP10).
A. -0.385

Q. Give measured shrunken log2 fold change for RRIRARPPRLPRPRPRPVDYPRP (Escherichia coli TOP10).
A. 0.197

Q. Give measured shrunken log2 fold change for RRIRVRPPRLPRPRPRPVMHPRP (Escherichia coli TOP10).
A. -0.0179

Q. Give measured shrunken log2 fold change for RRIRARPPRLPRPRPRPCTNPRP (Escherichia coli TOP10).
A. 0.109

Q. Give measured shrunken log2 fold change for RRIRCRPPRLPRPRPRPKHGPRP (Escherichia coli TOP10).
A. -0.116

Q. Give measured shrunken log2 fold change for RRIRLRPPRLPRPRPRPMQVPRP (Escherichia coli TOP10).
A. -0.0149

Q. Give measured shrunken log2 fold change for RRIRNRPPRLPRPRPRPTEGPRP (Escherichia coli TOP10).
A. 0.0116

Q. Give measured shrunken log2 fold change for RRIRIRPPRLPRPRPRPSGDPRP (Escherichia coli TOP10).
A. -0.742

Q. Give measured shrunken log2 fold change for RRIRPRPPRLPRPRPRPWTLPRP (Escherichia coli TOP10).
A. 0.104

Q. Give measured shrunken log2 fold change for RRIRTRPPRLPRPRPRPMWIPRP (Escherichia coli TOP10).
A. -0.222

Q. Give measured shrunken log2 fold change for RRIRKRPPRLPRPRPRPVWKPRP (Escherichia coli TOP10).
A. 0.138

Q. Give measured shrunken log2 fold change for RRIRMRPPRLPRPRPRPAWHPRP (Escherichia coli TOP10).
A. 0.726

Q. Give measured shrunken log2 fold change for RRIRIRPPRLPRPRPRPIYKPRP (Escherichia coli TOP10).
A. -0.517

Q. Give measured shrunken log2 fold change for RRIRMRPPRLPRPRPRPCRQPRP (Escherichia coli TOP10).
A. 0.0303

Q. Give measured shrunken log2 fold change for RRIRERPPRLPRPRPRPIVIPRP (Escherichia coli TOP10).
A. -0.233

Q. Give measured shrunken log2 fold change for RRIRYRPPRLPRPRPRPGQEPRP (Escherichia coli TOP10).
A. -0.0317

Q. Give measured shrunken log2 fold change for RRIRTRPPRLPRPRPRPPFGPRP (Escherichia coli TOP10).
A. 0.0407

Q. Give measured shrunken log2 fold change for RRIRYRPPRLPRPRPRPTMCPRP (Escherichia coli TOP10).
A. -0.159

Q. Give measured shrunken log2 fold change for RRIRWRPPRLPRPRPRPEFTPRP (Escherichia coli TOP10).
A. 0.362
